- Experimental System: HGF (hepatocyte growth factor/scatter factor) (UniProt P14210;P14210 P14210:32-494,P14210:495-728)
- Sequence (P14210 32-494, chain 1 of 2): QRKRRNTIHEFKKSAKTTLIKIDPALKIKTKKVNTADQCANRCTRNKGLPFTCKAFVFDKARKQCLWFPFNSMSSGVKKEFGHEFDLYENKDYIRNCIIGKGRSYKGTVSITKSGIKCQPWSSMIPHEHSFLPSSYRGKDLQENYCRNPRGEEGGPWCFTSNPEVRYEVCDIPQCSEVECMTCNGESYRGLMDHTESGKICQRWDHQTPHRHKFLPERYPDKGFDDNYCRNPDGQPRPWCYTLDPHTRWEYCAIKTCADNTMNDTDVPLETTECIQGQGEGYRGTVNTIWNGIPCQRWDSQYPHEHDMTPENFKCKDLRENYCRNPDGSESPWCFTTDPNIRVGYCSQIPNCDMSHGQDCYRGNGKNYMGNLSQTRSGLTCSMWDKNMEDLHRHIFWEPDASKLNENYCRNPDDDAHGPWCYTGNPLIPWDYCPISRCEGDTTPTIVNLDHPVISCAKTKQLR
- Sequence (P14210 495-728, chain 2 of 2): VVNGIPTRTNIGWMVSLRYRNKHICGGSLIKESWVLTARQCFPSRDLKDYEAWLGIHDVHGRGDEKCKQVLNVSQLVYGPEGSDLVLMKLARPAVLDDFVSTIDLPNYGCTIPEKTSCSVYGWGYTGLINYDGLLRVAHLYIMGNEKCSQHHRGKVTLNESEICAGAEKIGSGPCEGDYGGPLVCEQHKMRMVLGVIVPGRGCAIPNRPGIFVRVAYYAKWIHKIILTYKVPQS
- Method: filter; HBSMC, 37C
- Measurement Parameters: tags: R&D Systems
Attribute Measured: Kd
The reply must contain the numeric value and, after it, the unit.

Study these solved cases before continuing.
INSERT INTO results (binder, attribute_measured, val) VALUES
  ('10-23 (ssRNA, 2''-F pyrimidines) RNA: GGGAGAUAAGAAUAAACGCUCAAGUCUGAGUUGGACACAACGCAUUGAGACCCUUCGACAGGAGGCUCACAACAGGC', 'Kd', '0.33 nM'),
  ('10-27 (ssRNA, 2''-F pyrimidines) RNA: GGGAGAUAAGAAUAAACGCUCAAUUAGCCUCCGACCGUAAGGUCCUUUUCUUGUUCGACAGGAGGCUCACAACAGGC', 'Kd', '0.83 nM'),
  ('10-76 (ssRNA, 2''-F pyrimidines) RNA: GGGAGAUAAGAAUAAACGCUCAAAGUUAGGCUUUAAAGCACGAUAAUCAGCAUUCGACAGGAGGCUCACAACAGGC', 'Kd', '0.17 nM'),
  ('8-104 (ssRNA, 2''-F pyrimidines) RNA: GGGAGGACGAUGCGGGCGACUCAAUCUGAAUCGUCUUGUCCCGUGCAGACGACUCGCCCGA', 'Kd', '0.05 nM');

Now let's try a different one.
The binder listed as 11-110 (ssRNA, 2'-F pyrimidines) RNA: GGGAGGACGAUGCGGUGAUUACCUAUUUAUGUCAUGCUCCUCCCCCAGACGACUCGCCCGA shows Kd equal to 0.086 nM
